The origin of these recorded values is PubChem BioAssay AID2060505.

Here, each record is paired with measured viability, T/C data.
system: 633275-114-R-J1-PDC complex spheroids, viability; assay: Anticancer human tumor 633275-114-R-J1-PDC patient-derived endometrial adenocarcinoma cell line growth inhibition [GQUAD]; conditions: second compound 0.316 µM; first compound 10 µM; stronger effect = lower value

(Q) Please state recorded viability, T/C (tested on 633275-114-R-J1-PDC complex spheroids, viability) of CCCS(=O)(=O)Nc1ccc(F)c(C(=O)c2c[nH]c3ncc(-c4ccc(Cl)cc4)cc23)c1F + CN(C)c1ccc(Nc2c3ccc(NC(=O)CCN4CCCC4)cc3nc3cc(NC(=O)CCN4CCCC4)ccc23)cc1
(A) 48.4%

(Q) Please state recorded viability, T/C (tested on 633275-114-R-J1-PDC complex spheroids, viability) of Cc1cccc(N(C)C(=O)C2C(O)CCN2c2nc(C)cc(C(F)(F)F)c2C#N)c1 (stereo not given) + CN(C)c1ccc(Nc2c3ccc(NC(=O)CCN4CCCC4)cc3nc3cc(NC(=O)CCN4CCCC4)ccc23)cc1
(A) 85.3%

(Q) Please state recorded viability, T/C (tested on 633275-114-R-J1-PDC complex spheroids, viability) of COc1ncnc(C2CC2)c1-c1ncc2cnn(Cc3ccc(-c4nc(C(F)(F)F)cn4C(C)C)cc3)c2n1 + Cc1[nH]c2ccc(F)cc2c1-c1nc2c3cccnc3c3ncccc3c2[nH]1
(A) 91.8%

(Q) Please state recorded viability, T/C (tested on 633275-114-R-J1-PDC complex spheroids, viability) of CC1COCCN1c1cc(C2(O)CC3CCC(C2)O3)c2cnn(-c3ccn[nH]3)c2n1 (stereo not given) + CN(C)c1ccc(Nc2c3ccc(NC(=O)CCN4CCCC4)cc3nc3cc(NC(=O)CCN4CCCC4)ccc23)cc1
(A) 10.4%

(Q) Please state recorded viability, T/C (tested on 633275-114-R-J1-PDC complex spheroids, viability) of CC(=O)O[C@H]1C(=O)[C@@]2(C)[C@H]([C@H](OC(=O)c3ccccc3)[C@]3(O)C[C@H](OC(=O)[C@H](O)[C@@H](NC(=O)c4ccccc4)c4ccccc4)C(C)=C1C3(C)C)[C@]1(OC(C)=O)CO[C@@H]1C[C@@H]2O + Cc1[nH]c2ccc(F)cc2c1-c1nc2c3cccnc3c3ncccc3c2[nH]1
(A) 19.1%

* * *

tested on: 633275-114-R-J1-PDC complex spheroids, viability; assay: Anticancer human tumor 633275-114-R-J1-PDC cell line growth inhibition [GQUAD]; settings: second compound 0.316 µM; first compound 10 µM; stronger effect = lower value;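 further: spheroids exposed to the agents for seven days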;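 on viability, T/C: percent of DMSO vehicle control viability which is 100%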
Kindly apply the following: Y if viability, T/C is less than 20%, N in every other case.

molecule	group-label
C=CC(=O)N1CCN(c2nc(=O)n(-c3c(C)ccnc3C(C)C)c3nc(-c4c(O)cccc4F)c(F)cc23)C(C)C1 (stereo not given) + Cc1[nH]c2ccc(F)cc2c1-c1nc2c3cccnc3c3ncccc3c2[nH]1	N
C#Cc1c(F)ccc2cc(O)cc(-c3ncc4c(N5CC6CCC(C5)N6)nc(OCC56CCCN5CC(F)C6)nc4c3F)c12 (stereo not given) + Cc1[nH]c2ccc(F)cc2c1-c1nc2c3cccnc3c3ncccc3c2[nH]1	N
COc1cc(C2c3cc4c(cc3C(OC3OC5COC(C)OC5C(O)C3O)C3COC(=O)C23)OCO4)cc(OC)c1O (stereo not given) + Cc1cnc(CNC(=O)c2c(=O)c3ccc(N4CCCN(C)CC4)nc3n3c2sc2ccccc23)cn1	N
COc1cccc2c1C(=O)c1c(O)c3c(c(O)c1C2=O)CC(O)(C(=O)CO)CC3OC1CC(N)C(O)C(C)O1 (stereo not given) + CN(C)c1ccc(Nc2c3ccc(NC(=O)CCN4CCCC4)cc3nc3cc(NC(=O)CCN4CCCC4)ccc23)cc1	Y
O=C(NO)c1cnc(N2CCN(S(=O)(=O)c3ccc4ccccc4c3)CC2)nc1 + Cc1cnc(CNC(=O)c2c(=O)c3ccc(N4CCCN(C)CC4)nc3n3c2sc2ccccc23)cn1	Y

(Q) Does this molecule meet the criterion viability, T/C < 20%? CC1COCCN1c1cc(-c2ccnn2C)c2ccnc(-c3ccn[nH]3)c2n1 (stereo not given) + Cc1cnc(CNC(=O)c2c(=O)c3ccc(N4CCCN(C)CC4)nc3n3c2sc2ccccc23)cn1
(A) Y

(Q) Does this molecule meet the criterion viability, T/C < 20%? O=C(c1cc(Cc2n[nH]c(=O)c3ccccc23)ccc1F)N1CCN(C(=O)C2CC2)CC1 + Cc1[nH]c2ccc(F)cc2c1-c1nc2c3cccnc3c3ncccc3c2[nH]1
(A) N

* * *

test system: 633275-114-R-J1-PDC complex spheroids, viability; test: Anticancer human tumor 633275-114-R-J1-PDC cell line growth inhibition [GQUAD]; conditions: second compound 0.316 µM; first compound 10 µM; active means viability on the fitted dose curve at most 10% of control; inactive means the rest;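 further: spheroids exposed to the agents for seven days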
# valid calls are active, inactive; nothing else

compound	system-name	group-label
CC(C)(O)C1CCC(Nc2ccc3ncc(-c4cccc(C(F)(F)F)c4)n3n2)CC1 (stereo not given) + CN(C)c1ccc(Nc2c3ccc(NC(=O)CCN4CCCC4)cc3nc3cc(NC(=O)CCN4CCCC4)ccc23)cc1	633275-114-R-J1-PDC complex spheroids, viability	inactive
CC1COCCN1c1cc(C2(S(C)(=N)=O)CC2)nc(-c2ccnc3[nH]ccc23)n1 (stereo not given) + Cc1[nH]c2ccc(F)cc2c1-c1nc2c3cccnc3c3ncccc3c2[nH]1	633275-114-R-J1-PDC complex spheroids, viability	inactive
CC(=O)O[C@H]1C(=O)[C@@]2(C)[C@H]([C@H](OC(=O)c3ccccc3)[C@]3(O)C[C@H](OC(=O)[C@H](O)[C@@H](NC(=O)c4ccccc4)c4ccccc4)C(C)=C1C3(C)C)[C@]1(OC(C)=O)CO[C@@H]1C[C@@H]2O + Cc1cnc(CNC(=O)c2c(=O)c3ccc(N4CCCN(C)CC4)nc3n3c2sc2ccccc23)cn1	633275-114-R-J1-PDC complex spheroids, viability	inactive
CC1COCCN1c1cc(-c2ccnn2C)c2ccnc(-c3ccn[nH]3)c2n1 (stereo not given) + Cc1[nH]c2ccc(F)cc2c1-c1nc2c3cccnc3c3ncccc3c2[nH]1	633275-114-R-J1-PDC complex spheroids, viability	inactive

(Q) Status in this test for O=C(NO)c1cnc(N2CCN(S(=O)(=O)c3ccc4ccccc4c3)CC2)nc1 + CN(C)c1ccc(Nc2c3ccc(NC(=O)CCN4CCCC4)cc3nc3cc(NC(=O)CCN4CCCC4)ccc23)cc1 ?
(A) active

(Q) Status in this test for CCCS(=O)(=O)Nc1ccc(F)c(C(=O)c2c[nH]c3ncc(-c4ccc(Cl)cc4)cc23)c1F + Cc1cnc(CNC(=O)c2c(=O)c3ccc(N4CCCN(C)CC4)nc3n3c2sc2ccccc23)cn1 ?
(A) inactive

(Q) Status in this test for COc1cc(C2c3cc4c(cc3C(OC3OC5COC(C)OC5C(O)C3O)C3COC(=O)C23)OCO4)cc(OC)c1O (stereo not given) + CN(C)c1ccc(Nc2c3ccc(NC(=O)CCN4CCCC4)cc3nc3cc(NC(=O)CCN4CCCC4)ccc23)cc1 ?
(A) inactive

(Q) Status in this test for CC(C)n1c(=O)n(C)c2cnc3cc(F)c(-c4ccc(OCCCN5CCCCC5)nc4)cc3c21 + CN(C)c1ccc(Nc2c3ccc(NC(=O)CCN4CCCC4)cc3nc3cc(NC(=O)CCN4CCCC4)ccc23)cc1 ?
(A) inactive

(Q) Status in this test for COc1cccc2c1C(=O)c1c(O)c3c(c(O)c1C2=O)CC(O)(C(=O)CO)CC3OC1CC(N)C(O)C(C)O1 (stereo not given) + Cc1cnc(CNC(=O)c2c(=O)c3ccc(N4CCCN(C)CC4)nc3n3c2sc2ccccc23)cn1 ?
(A) active

(Q) Status in this test for CC1COCCN1c1cc(-c2ccnn2C)c2ccnc(-c3ccn[nH]3)c2n1 (stereo not given) + CN(C)c1ccc(Nc2c3ccc(NC(=O)CCN4CCCC4)cc3nc3cc(NC(=O)CCN4CCCC4)ccc23)cc1 ?
(A) inactive

* * *

Here, each record is paired with measured pIC50 data.
Test system: 633275-114-R-J1-PDC complex spheroids, viability
Assay: Anticancer human tumor 633275-114-R-J1-PDC cell line growth inhibition [GQUAD];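 further: spheroids exposed to the agents for seven days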
Details: curve of first compound; second compound 3.16 µM
Excerpt: DNA G-quadruplex Stabilizer Agents in Combinations in Complex Spheroids A high-throughput screen of multi-cell type tumor spheroids was designed to identify active combinations of DNA G-quadruplex stabilizer agents and targeted small molecules. […] Compounds. […] If the clinical Cmax for an agent had not been determined, the highest concentration tested was 10 microM. […]
On this scale, pIC50 is minus log10 of a concentration expressed in M (mol/L).

Known results for molecules:
molecule	pIC50
CC[C@@]1(O)C(=O)OCc2c1cc1n(c2=O)Cc2cc3c(CN(C)C)c(O)ccc3nc2-1 + CN(C)c1ccc(Nc2c3ccc(NC(=O)CCN4CCCC4)cc3nc3cc(NC(=O)CCN4CCCC4)ccc23)cc1	7.32
O=C(NO)c1cnc(N2CCN(S(=O)(=O)c3ccc4ccccc4c3)CC2)nc1 + CN(C)c1ccc(Nc2c3ccc(NC(=O)CCN4CCCC4)cc3nc3cc(NC(=O)CCN4CCCC4)ccc23)cc1	6.86
COc1cccc2c1C(=O)c1c(O)c3c(c(O)c1C2=O)CC(O)(C(=O)CO)CC3OC1CC(N)C(O)C(C)O1 (centres undefined) + CN(C)c1ccc(Nc2c3ccc(NC(=O)CCN4CCCC4)cc3nc3cc(NC(=O)CCN4CCCC4)ccc23)cc1	7.33
CC[C@@]1(O)C(=O)OCc2c1cc1n(c2=O)Cc2cc3c(CN(C)C)c(O)ccc3nc2-1 + Cc1[nH]c2ccc(F)cc2c1-c1nc2c3cccnc3c3ncccc3c2[nH]1	7.33
COc1cccc2c1C(=O)c1c(O)c3c(c(O)c1C2=O)CC(O)(C(=O)CO)CC3OC1CC(N)C(O)C(C)O1 (centres undefined) + Cc1[nH]c2ccc(F)cc2c1-c1nc2c3cccnc3c3ncccc3c2[nH]1	7.34
O=C(c1cc(Cc2n[nH]c(=O)c3ccccc23)ccc1F)N1CCN(C(=O)C2CC2)CC1 + Cc1[nH]c2ccc(F)cc2c1-c1nc2c3cccnc3c3ncccc3c2[nH]1	5.08

(Q) Please state recorded pIC50 (tested on 633275-114-R-J1-PDC complex spheroids, viability) of Cn1ncnc1[C@H]1c2n[nH]c(=O)c3cc(F)cc(c23)N[C@@H]1c1ccc(F)cc1 + Cc1[nH]c2ccc(F)cc2c1-c1nc2c3cccnc3c3ncccc3c2[nH]1
(A) 6.59

(Q) Please state recorded pIC50 (tested on 633275-114-R-J1-PDC complex spheroids, viability) of CC(C)(O)C1CCC(Nc2ccc3ncc(-c4cccc(C(F)(F)F)c4)n3n2)CC1 (centres undefined) + CN(C)c1ccc(Nc2c3ccc(NC(=O)CCN4CCCC4)cc3nc3cc(NC(=O)CCN4CCCC4)ccc23)cc1
(A) 5.88

(Q) Please state recorded pIC50 (tested on 633275-114-R-J1-PDC complex spheroids, viability) of C#Cc1c(F)ccc2cc(O)cc(-c3ncc4c(N5CC6CCC(C5)N6)nc(OCC56CCCN5CC(F)C6)nc4c3F)c12 (centres undefined) + CN(C)c1ccc(Nc2c3ccc(NC(=O)CCN4CCCC4)cc3nc3cc(NC(=O)CCN4CCCC4)ccc23)cc1
(A) 5.36
